The reported numbers originate from patent EP4553080A1.

Molecular target: nsp14 methyltransferase from SARS-CoV-2 (Severe acute respiratory syndrome coronavirus 2)
Assay: Nsp14 MTase activity inhibition in vitro (EchoMS assay)
Assay type: biochemical
Conditions: recombinant nsp14 protein expressed in E. coli; dose-response curve
reported_property: IC50

Cc1noc(C2CCCCC2)c1CSC[C@H]1O[C@@H](n2ccc3c(N)ncnc32)[C@H](O)[C@@H]1O [Compound 98c] = 500 to 2000 nM

Return reported IC50; argument: Cc1noc(-c2ccccc2)c1CSC[C@H]1O[C@@H](n2cc(C3CCCCC3)c3c(N)ncnc32)[C@H](O)[C@@H]1O [Compound 134b]
100 to 500 nM

Return reported IC50; argument: Cc1noc(-c2ccccc2)c1CSC[C@H]1O[C@@H](n2nc(C#Cc3cncnc3)c3c(N)ncnc32)[C@H](O)[C@@H]1O [Compound 218b]
30 to 100 nM

Return reported IC50; argument: Cc1noc(-c2ccccc2)c1CSC[C@H]1O[C@@H](n2cc(CCCC#N)c3c(N)ncnc32)[C@H](O)[C@@H]1O [Compound 137b]
10 to 30 nM
